TEST: Kinetic solubility
Assay type: physicochemical
MEASUREMENT PARAMETERS: citrate buffer, 25 °C, pH 3, aqueous buffer, kinetic from dmso stock; read-out: Citrate buffer solubility, pH 3.0
RECORDED METRIC: log10 solubility at 2 h (log10 of the value in µM)

[
  {
    "MOLECULE": "CC(C)Cc1cc(F)c(-c2nn[nH]n2)c(N2CCN(Cc3cccnn3)C(C)C2)c1 (centres unmarked)",
    "log10 solubility at 2 h": 2.55
  },
  {
    "MOLECULE": "CC(C)Cc1cc(F)c(-c2nn[nH]n2)c(N2CC(C)N(Cc3cccnn3)CC2C)c1 (centres unmarked)",
    "log10 solubility at 2 h": 2.58
  },
  {
    "MOLECULE": "CC(C)Cc1cc(F)c(-c2nn[nH]n2)c(N2CCN(Cc3cccnn3)[C@@H](C)C2)c1",
    "log10 solubility at 2 h": 2.55
  },
  {
    "MOLECULE": "CC(C)Oc1ccc(-c2nn[nH]n2)c(N2CCN(Cc3nc4ccccc4s3)CC2)c1",
    "log10 solubility at 2 h": 0.60
  },
  {
    "MOLECULE": "CCC1CN(Cc2cccnn2)CCN1c1cc(CC(C)C)cc(F)c1-c1nn[nH]n1 (centres unmarked)",
    "log10 solubility at 2 h": 2.59
  },
  {
    "MOLECULE": "CC(C)Oc1ccc(-c2nn[nH]n2)c(N2CCN(Cc3nc4ccccc4c(=O)[nH]3)CC2)c1",
    "log10 solubility at 2 h": 2.60
  },
  {
    "MOLECULE": "CC(C)Cc1ccc(-c2nn[nH]n2)c(N2CCN(Cc3nc4ccccc4c(=O)[nH]3)CC2)c1",
    "log10 solubility at 2 h": 1.60
  }
]

// data source = patent US20240368133A1
